Please respond with reported TGI for every item in the list.
# System: MOLT-4 leukemia
# protocolDetails: NCI tumour cell line growth inhibition, 48 h

INSERT INTO results (compound, measurement) VALUES
  ('Cc1cc(Cc2cc(C)c(NC(=O)C(=O)C3CCC4=C(SC5C=CC=CC5N4)C3=O)c(C(C)C)c2)cc(C(C)C)c1NC(=O)C(=O)C1CCC2=C(SC3C=CC=CC3N2)C1=O (configuration not stated)', '> 100 µM'),
  ('O=C(c1ccccc1)C(CN1CCCCC1)c1ccccc1 (configuration not stated)', '5.09 µM'),
  ('O=C(Nc1ccc(-n2ccc3c(NC(=O)c4ccccc4)ncnc32)cc1)Nc1ccc(Cl)c(Cl)c1', '12.9 µM');

Give measured TGI for every item shown.
1. CC(C)N=C(N)NC#N
2. O=C(Nc1ccncc1)C(=O)c1cn(S(=O)(=O)c2ccc(Cl)cc2)c2ccccc12
3. CC(C)([NH-])CO.CC(C)([NH-])CO.[Cl][Cd][Cl]
4. COCc1cc(C(=O)Nc2cc([C@H]3CC[C@@H](OC(=O)NC(C)C)C3)[nH]n2)n(C)n1

## Result
["> 100 µM", "> 100 µM", "47.3 µM", "68.1 µM"]

Give measured TGI for every item shown.
1. Oc1ccc(C(c2ccc(O)cc2)c2ccc(O)cc2)cc1
2. COc1ccc2ccccc2c1C1NC(=O)c2ccccc2N1 (configuration not stated)
3. CC1=C(c2ccccc2)NC(=S)C(C)C(c2ccccc2)=N1 (configuration not stated)
4. CC(Nc1ccc(S(=O)(=O)N=C(N)N)cc1)c1c2ccccc2nc2ccccc12 (configuration not stated)
5. [N-]=[N+]=NCCCCCC(=O)OC(C(=O)c1ccccc1)c1cccc(OCC(=O)NCCOCCOCCNC(=O)CCCC[C@@H]2SC[C@@H]3NC(=O)N[C@@H]32)c1 (some centres not stated)
6. Cc1ccc(S(=O)(=O)NC2(C=O)CCCC3CCCCC32)cc1 (configuration not stated)

## Result
52.2 µM
9.2 µM
54.1 µM
48.1 µM
> 100 µM
> 100 µM

Give measured TGI for every item shown.
1. O=C(CCN1CCN(c2ccccc2)CC1)N1CCc2c([nH]c3ccccc23)C1c1cccnc1 (configuration not stated)
2. S=C(Nc1ccc(-c2nc3ccccc3[nH]2)cc1)Nc1ccc(-c2nc3ccccc3[nH]2)cc1

## Result
1. 51.1 µM
2. > 100 µM

Give measured TGI for every item shown.
1. CC(=O)OCC1OC(n2c(-c3ccccc3)c(C(C)=O)c(-c3cccc4ccccc34)c(C#N)c2=S)C(OC(C)=O)C(OC(C)=O)C1OC(C)=O (configuration not stated)
2. COC1CN(C)C(=Nc2cccc3ccccc23)S1 (configuration not stated)
3. O=C(CN1CCOCC1)c1ccc2c(c1)oc(=O)n2CCN1CCOCC1
4. CC(=O)OC(C)(C)/C(C)=C/C(=O)O[C@H]1C(=O)O[C@@H]2C[C@H]3[C@H](C)C(=O)C(O[C@@H]4O[C@H](CO)[C@@H](O)[C@H](O)[C@H]4O)=C[C@]3(C)[C@H]3[C@@H](O)[C@H](O)[C@@]4(C(=O)O)OC[C@]32[C@@H]14

## Result
["> 100 µM", "> 10 µM", "> 100 µM", "> 100 µM"]

Give measured TGI for every item shown.
1. [N-]=[N+]=NC(c1cn(C2CC(O)C(CO)O2)c(=O)[nH]c1=O)C(Cl)I (configuration not stated)
2. N#Cc1c(N2CCC(O)C2)c2ccccc2n2c1nc1ccccc12 (configuration not stated)

## Result
1. > 100 µM
2. > 100 µM

Give measured TGI for every item shown.
1. NC(=O)Cc1nc2c(N)ncnc2n1C1OC(CO)C(O)C1O (configuration not stated)
2. C=CC(=O)Nc1cc(C)ccc1Nc1nc(Nc2cc(OC)ncc2C)ncc1C(F)(F)F
3. CC(C)[C@H](NC(=O)[C@H](N)Cc1ccc(N(CCCl)CCCl)cc1)C(=O)O

## Result
1. > 100 µM
2. > 100 µM
3. > 100 µM

Give measured TGI for every item shown.
1. CC(=O)c1c(C)[nH]c(-c2nc3ccc(N4CCN(C)CC4)cc3[nH]2)c1-c1ccc(N(C)C)cc1
2. Cc1cccc2c1c(=O)c1c(O)c3c(cc1n2C)OC(C)(C)C=C3
3. COC(O)C(=O)c1ccc2c(c1)CC1(C2)Cc2cc3c(cc2C1=O)CCC3 (configuration not stated)
4. O=c1ccn(COC(COCc2ccccc2)COCc2ccccc2)c(=O)[nH]1
5. COc1ccc(Cc2nnc(Nc3ccc(Br)cc3)[nH]c2=O)cc1OC
6. O=C(O)C1(C(=O)O)CCC1.[NH2-].[NH2-].[Pt+2]
7. CN(C)C(c1ccccc1)C1COC2Cc3ccccc3C1O2 (configuration not stated)
8. COc1ccc(/C(Cl)=C(\C=N/O)c2ccc(OC)c(OC)c2)cc1OC

## Result
1: 45.2 µM; 2: > 10 µM; 3: 64 µM; 4: > 100 µM; 5: > 100 µM; 6: > 237 µM; 7: > 100 µM; 8: > 100 µM

Give measured TGI for every item shown.
1. COc1cc(C2SCC(=O)N2c2ncc(C)s2)cc(OC)c1OC (configuration not stated)
2. N#CC(Cc1ccccc1)N(CCC1=CCCCC1)Cc1ccccc1 (configuration not stated)

## Result
1: > 50 µM; 2: 90.6 µM

Ref: PubChem BioAssay (NCI)
